Cited source: patent US20250276077A1

target: T1, Human EphA2 (human, UniProt P29317 24-976); test: IHC/IF on frozen human tumor tissue: NSCLC-Adeno
T1 construct: Endogenous EphA2 in fresh frozen human tumor tissue sections, not a recombinant protein; also called ephrin receptor A2; hEphA2
metric: IHC score
When you answer, write just the number.

Form: binder = AB-009812 (antibody, mouse IgG2a, V domains shown, Made on a mouse IgG2a framework) VH: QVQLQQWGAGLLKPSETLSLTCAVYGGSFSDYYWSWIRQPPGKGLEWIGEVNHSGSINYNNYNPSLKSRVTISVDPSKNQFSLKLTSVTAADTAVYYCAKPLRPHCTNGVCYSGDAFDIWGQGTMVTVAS VL: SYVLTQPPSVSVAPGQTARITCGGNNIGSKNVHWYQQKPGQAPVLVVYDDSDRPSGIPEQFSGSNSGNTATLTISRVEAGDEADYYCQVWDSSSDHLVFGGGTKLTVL ; IHC score = 2
